Data origin: PubChem BioAssay AID179

Test system: CEM cells HIV-1 protection, formazan growth assay
Test: NCI AIDS Antiviral Assay;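 active = compounds giving half or more protection of infected cells from virus-caused growth loss, again on retest; inactive = the rest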
Parameter call: string, one of 1.0 for active, 0.0 for inactive

Below, 2 compounds whose answers are already recorded.
Lookup: Would you mind telling me which call this test gave "CC1(C)CC(=O)C(/C=N/C(N)=S)=C(O)C1" ?
Found: 0.0

Lookup: # outcome recorded in this test, key = "COc1ccc2[nH]c3c4c(ccc3c2c1)C(=O)C=CC4=O"
Found: 0.0

***
Lookup: Could you please tell me the result logged for "Cn1c2ccccc2n2c(=O)c(-c3ccc(O)cc3)nnc12" in this assay?
Found: 0.0

Lookup: Given CCOC(=O)/C=C/c1ccc2c(c1)OC(c1ccc(O)c(OC)c1)C(CO)O2 (stereo unspecified) , state the outcome it received in this test.
Found: 0.0

----------
System: CEM cells HIV-1 protection, formazan growth assay
Assay: NCI AIDS Antiviral Assay
Conditions: measured here: growth of uninfected CEM cells
parameter-measured: pIC50
The quantity pIC50 is defined as the negative base-10 logarithm of the molar concentration.

Reported pIC50 ( "Cc1ccc(-c2c(C#N)c(-c3ccc(Cl)cc3)c(C#N)c(=O)n2NS(=O)(=O)c2ccc(C)cc2)cc1" ) = 4.68

Further cases:
Entry O=C(NCC(O)COc1ccccc1)c1ccccc1O (centres undefined) — recorded pIC50 = 3.94

----------
Tested on: CEM cells HIV-1 protection, formazan growth assay
Assay: NCI AIDS Antiviral Assay
Listed next: entries and their corresponding EC50.

Noted for "CCc1nc(N)nc(N)c1-c1ccc(Cl)c(N=NN(C)C)c1" : its EC50 reads > 1 µM

Note to self: EC50 recorded for O=S(Cc1ccccc1)/C(=C/NC(=S)Nc1ccccc1)c1ccccc1 (stereo unspecified) was 182 µM

Form field EC50, entry "N#Cc1nn(C(N)=O)c(N)c1C#N" : > 200 µM

The reported EC50 of the molecule N#CC(/C(=N\NC(N)=S)C(=O)NC1C2CC3CC(C2)CC1C3)c1ccc(Cl)cc1 (stereo unspecified) was > 17 µM

Reported EC50 ( Cc1nc2c(c(=O)[nH]1)C1CCCCCCCN1C(=S)N2C (stereo unspecified) ) = > 200 µM

***
For reference, reported EC50 for Cc1cc(=O)[nH]c(NNC(C#N)c2ccccc2O)n1 (stereo unspecified) stands at > 182 µM

Entry "c1ccc(-c2nnc3oc(-c4cccs4)nn23)cc1" ; EC50 = > 100 µM

EC50 reading for "N#Cc1sc2c(c1OC(=O)c1ccc(C(F)(F)F)cc1)c(=O)n(-c1ccccc1)c(=S)n2-c1ccccc1" : > 200 µM

Value of EC50 reported for the molecule "Oc1ccc(Cl)cc1-c1cc(-c2ccccc2)nc(=S)[nH]1" is > 200 µM

----------
The reader will find reported pEC50 values listed item by item below.
Tested on: CEM cells HIV-1 protection, formazan growth assay
Assay: NCI AIDS Antiviral Assay
pEC50: −log10 of the molar value.

Worked examples follow.
Recorded result, "CCCCOB(OCCCC)OCCCC" , pEC50: < 3.70

So for "O=C(CNc1ccc([N+](=O)[O-])cc1)Nn1c(-c2ccccc2)nc2ccccc2c1=O" , the logged pEC50 turned out to be < 3.70

pEC50 reported for this molecule "COc1ccc2[nH]c3c(C)cc([N+](=O)[O-])c(C)c3c2c1" : < 3.70

Continue with the molecule presented below.
For "CC1(C)O[C@@H]2COC(=O)[C@@H]2O1" the molecule record lists pEC50 as < 3.70
